Target: 11-beta-hydroxysteroid dehydrogenase 1 (Homo sapiens, UniProt P28845)
Sequence (P28845 whole entry): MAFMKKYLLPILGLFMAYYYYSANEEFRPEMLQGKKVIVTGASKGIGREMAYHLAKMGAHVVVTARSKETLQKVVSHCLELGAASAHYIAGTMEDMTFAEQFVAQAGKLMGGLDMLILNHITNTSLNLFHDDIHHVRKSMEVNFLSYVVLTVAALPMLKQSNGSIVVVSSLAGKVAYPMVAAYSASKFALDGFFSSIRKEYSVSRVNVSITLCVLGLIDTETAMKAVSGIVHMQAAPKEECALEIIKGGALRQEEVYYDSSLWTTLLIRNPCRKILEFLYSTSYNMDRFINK
Test: Inhibition of human 11beta-HSD1
METRIC_NAME: IC50
Field: value (include unit after the number)

As a guide, the following entries are already answered.
| COMPOUND | METRIC_NAME | READOUT_VALUE |
| --- | --- | --- |
| CC(C)(Oc1ccc(Cl)cc1)C(=O)N[C@H]1C2COCC1C[C@@H](C(N)=O)C2 | IC50 | 25 nM |
| CC(C)(Oc1ccc(Cl)cc1)C(=O)NC12CCC(C(N)=O)(CC1)CC2 | IC50 | 13 nM |
| CC(C)(Oc1ccc(Cl)cc1)C(=O)N[C@H]1C2CCCC1C[C@@H](C(=O)O)C2 | IC50 | 149 nM |
| CC(C)(C(=O)N[C@H]1C2CCC1C[C@@H](C(=O)O)C2)N1CCN(c2ccc(C(F)(F)F)cn2)CC1 | IC50 | 97 nM |
| CC(C)(Oc1ccc(Cl)cc1)C(=O)NC1C2CC3CC1CC(O)(C2)O3 (stereo not drawn) | IC50 | 15 nM |
| CC(C)(Oc1ccc(C#N)cn1)C(=O)N[C@H]1C2CCCC1C[C@H](C(N)=O)C2 | IC50 | 11 nM |
| CC(C)(C(=O)N[C@H]1C2CCCC1C[C@H](C(N)=O)C2)N1CCN(c2ccc(C(F)(F)F)cn2)CC1 | IC50 | 88 nM |

Req: Hello, please tell me recorded IC50 for this one: CC(C)(C(=O)N[C@H]1C2CCCC1C[C@@H](C(N)=O)C2)N1CCN(c2ccc(C(F)(F)F)cn2)CC1 (stereo in doubt; 44)
Resp: 164 nM

----------
Target: 11-beta-hydroxysteroid dehydrogenase 1 (Homo sapiens, UniProt P28845)
Test: Inhibition of human 11beta-HSD1 expressed in HEK cells
Assay type: cell-based, HEK293
METRIC_NAME: pIC50
pIC50 is defined as minus the log10 of a concentration measured in mol/L.

| COMPOUND | METRIC_NAME | READOUT_VALUE |
| --- | --- | --- |
| CC(C)(Oc1ccc(Cl)cc1)C(=O)N[C@H]1C2CCCC1C[C@H](C(=O)O)C2 | pIC50 | 7.10 |
| CC(C)(Oc1ccc(Cl)cc1)C(=O)NC1CCCC(C#N)CCC1 (stereo not drawn) | pIC50 | 6.20 |

Please examine the following record next.
Req: Hello, please tell me recorded pIC50 for this one: CC(C)(C(=O)N[C@H]1C2CCCC1C[C@H](C(N)=O)C2)N1CCN(c2ccc(C(F)(F)F)cn2)CC1
Resp: 7.14

----------
Target: 11-beta-hydroxysteroid dehydrogenase 1 (Homo sapiens, UniProt P28845)
Assay: Inhibition of human 11beta-HSD1 expressed in HEK cells
Assay type: cell-based, HEK293
Checkbox rule: IC50 lower than 400 nM = met; IC50 not lower than 400 nM = not met.

For orientation, consider the following solved cases.
| COMPOUND | STUDY_TARGET | CAT |
| --- | --- | --- |
| CC(C)(C(=O)N[C@H]1C2CCCC1C[C@@H](C(=O)O)C2)N1CCN(c2ccc(C(F)(F)F)cn2)CC1 | 11-beta-hydroxysteroid dehydrogenase 1 (Homo sapiens, UniProt P28845) | not met |
| CC(C)(C(=O)N[C@H]1C2CCC1C[C@@H](C(=O)O)C2)N1CCN(c2ccc(C(F)(F)F)cn2)CC1 | 11-beta-hydroxysteroid dehydrogenase 1 (Homo sapiens, UniProt P28845) | met |
| CC(C)(C(=O)NC1CC[C@@H]2[C@H](CC1)[C@H]2C(N)=O)N1CCN(c2ccc(C(F)(F)F)cn2)CC1 (stereo not given in full) | 11-beta-hydroxysteroid dehydrogenase 1 (Homo sapiens, UniProt P28845) | met |
| CC(C)(Oc1ccc(Cl)cc1)C(=O)NC1C2CC3CC1CC(O)(C2)O3 (stereo not given) | 11-beta-hydroxysteroid dehydrogenase 1 (Homo sapiens, UniProt P28845) | met |
| CC(C)(C(=O)N[C@H]1C2CCCC1C[C@@H](C(N)=O)C2)N1CCN(c2ccc(C(F)(F)F)cn2)CC1 (stereo in doubt; 47) | 11-beta-hydroxysteroid dehydrogenase 1 (Homo sapiens, UniProt P28845) | met |

Req: Here's an entry: CC(C)(Oc1ccc(Cl)cc1)C(=O)NC12CCC(C(N)=O)(CC1)CC2 . Is its IC50 below 400 nM?
Resp: not met

Req: Here's an entry: CC(C)(Oc1ccc(Cl)cc1)C(=O)N[C@H]1C2CCCC1C[C@@H](C(N)=O)C2 . Is its IC50 below 400 nM?
Resp: met

Req: Here's an entry: CC(C)(C(=O)NC12CCC(C(N)=O)(CC1)CC2)N1CCN(c2ccc(C(F)(F)F)cn2)CC1 . Is its IC50 below 400 nM?
Resp: not met

Req: Here's an entry: CC(C)(Oc1ccc(Cl)cc1)C(=O)N[C@H]1C2COCC1C[C@@H](C(N)=O)C2 . Is its IC50 below 400 nM?
Resp: not met

Req: Here's an entry: CC(C)(C(=O)NC1CCCC(C#N)CCC1)N1CCN(c2ccc(C(F)(F)F)cn2)CC1 (stereo not given) . Is its IC50 below 400 nM?
Resp: met
